- system under test: recombinant human transglutaminase 2 (Homo sapiens, UniProt P21980)
- Construct: purchased Zedira T022
- Sequence (P21980 1-687): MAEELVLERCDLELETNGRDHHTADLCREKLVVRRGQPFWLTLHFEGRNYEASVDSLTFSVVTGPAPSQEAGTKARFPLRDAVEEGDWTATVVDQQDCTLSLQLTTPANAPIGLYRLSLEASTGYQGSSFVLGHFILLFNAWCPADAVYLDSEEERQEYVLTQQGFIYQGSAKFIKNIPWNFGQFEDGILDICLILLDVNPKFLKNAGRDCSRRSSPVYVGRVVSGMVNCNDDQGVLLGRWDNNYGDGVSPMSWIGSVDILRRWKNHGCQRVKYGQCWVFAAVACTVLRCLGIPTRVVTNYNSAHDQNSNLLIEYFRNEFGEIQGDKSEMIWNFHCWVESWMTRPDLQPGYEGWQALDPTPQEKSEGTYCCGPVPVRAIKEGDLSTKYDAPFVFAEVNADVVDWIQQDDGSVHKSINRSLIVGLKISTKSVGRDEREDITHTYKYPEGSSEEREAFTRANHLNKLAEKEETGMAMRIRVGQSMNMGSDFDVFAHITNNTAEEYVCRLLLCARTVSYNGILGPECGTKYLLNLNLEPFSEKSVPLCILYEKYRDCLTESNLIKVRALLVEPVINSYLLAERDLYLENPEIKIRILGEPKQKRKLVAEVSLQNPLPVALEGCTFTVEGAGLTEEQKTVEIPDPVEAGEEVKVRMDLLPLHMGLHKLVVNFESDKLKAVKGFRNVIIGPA
- experimental protocol: Transglutaminase assay (DCC-assay): incorporation of dansylcadaverine into dimethylcasein
- Assay type: biochemical
- condition label: recombinant human TG2 10 nM; dansylcadaverine incorporation into dimethylcasein; read-out: IC50 TG2
pIC50: −log10 of the molar value.
endpoint label: pIC50

Item CNC(=O)C(=O)CC[C@H](NC(=O)c1sc(C(F)(F)F)nc1C)C(=O)Nc1cccn(CC(=O)NC2C3CC4CC(C3)CC2C4)c1=O (some centres unmarked) has what recorded pIC50?
> 7.40

Reported pIC50, compound Cn1nccc1C(=O)N[C@@H](CCC(=O)C(N)=O)C(=O)Nc1cccn(CC(=O)NC2C3CC4CC(C3)CC2C4)c1=O (some centres unmarked) : ____
5.60 to 6.40

Look up pIC50: Cc1cn2c(C(=O)N[C@@H](CCC(=O)C(=O)NC(C)(C)C)C(=O)Nc3cccn(CC(=O)NC4C5CC6CC(C5)CC4C6)c3=O)csc2n1 (some centres unmarked)
5.60 to 6.40

// lookup pIC50 for CNC(=O)C(=O)CC[C@H](NC(=O)c1nonc1N)C(=O)Nc1cccn(CC(=O)NC23CC(C2)C3)c1=O
5.60 to 6.40

Quick one: pIC50 for CNC(=O)C(=O)CC[C@H](NC(=O)c1oc2ccccc2c1C)C(=O)Nc1cccn(CC(=O)NC2CC3C=CC2C3)c1=O (some centres unmarked) ?
6.40 to 7.40

Quick check: pIC50 of Cc1nnsc1C(=O)N[C@@H](CCC(=O)C(N)=O)C(=O)Nc1cccn(CC(=O)NC2C3CC4CC(C3)CC2C4)c1=O (some centres unmarked) ?
6.40 to 7.40

I would be grateful if you could share the reported pIC50 for CNC(=O)C(=O)CC[C@H](NC(=O)c1cncn1C)C(=O)Nc1cccn(CC(=O)NC23CC4CC(C)(CC(C)(C4)C2)C3)c1=O .
6.40 to 7.40

Param item = CNC(=O)C(=O)CC[C@H](NC(=O)c1csc(Cl)c1)C(=O)Nc1cccn(CC(=O)NC2C3CC4CC(C3)CC2C4)c1=O (some centres unmarked) ; retrieve measured pIC50.
6.40 to 7.40

I would be grateful if you could share the reported pIC50 for CNC(=O)C(=O)CC[C@H](NC(=O)c1sc(-c2ccccc2)nc1C)C(=O)Nc1cccn(CC(=O)NC2C3CC4CC(C3)CC2C4)c1=O (some centres unmarked) .
6.40 to 7.40

Please give the measured pIC50 for this compound: CNC(=O)C(=O)CC[C@H](NC(=O)c1oc2ccccc2c1C)C(=O)Nc1cccn(CC(=O)N[C@H]2C[C@H]3C[C@@H]([C@@H]2C)C3(C)C)c1=O
6.40 to 7.40

Dear colleague, I am looking for the recorded pIC50 of the following compound: CNC(=O)C(=O)CC[C@H](NC(=O)c1sc(Br)cc1Br)C(=O)Nc1cccn(CC(=O)NC2C3CC4CC(C3)CC2C4)c1=O (some centres unmarked)
> 7.40

Returns the measured pIC50 for the input compound. Input: CNC(=O)C(=O)CC[C@H](NC(=O)c1oc(Br)cc1C)C(=O)Nc1cccn(CC(=O)NC2C3CC4CC(C3)CC2C4)c1=O (some centres unmarked)
6.40 to 7.40

Given CCC(CC)CNC(=O)Cn1cccc(NC(=O)[C@H](CC/C=C/C(=O)OC)NC(=O)c2cncn2C)c1=O [Ref. 2, reference compound] , state its recorded pIC50.
6.40 to 7.40

Any idea what its pIC50 is? The compound is CCCCCNC(=O)C(=O)CC[C@H](NC(=O)c1oc2ccccc2c1C)C(=O)Nc1cccn(CC(=O)NC2C3CC4CC(C3)CC2C4)c1=O (some centres unmarked)
6.40 to 7.40

Value lookup for pIC50; key = CNC(=O)C(=O)CC[C@H](NC(=O)c1ccc2c(c1)CCCN2)C(=O)Nc1cccn(CC(=O)NC23CCC(C2)C3)c1=O
5.60 to 6.40

Could you share which pIC50 value was measured for Cc1c(C(=O)N[C@@H](CCC(=O)C(N)=O)C(=O)Nc2cccn(CC(=O)N[C@@H]3C[C@@H]4CC[C@H]3C4)c2=O)oc2ccccc12 ?
> 7.40

Given CC1(C)[C@@H]2CC[C@@]1(C)[C@@H](NC(=O)Cn1cccc(NC(=O)[C@H](CCC(=O)C(N)=O)NC(=O)c3cc4ccccc4o3)c1=O)C2 , state its recorded pIC50.
6.40 to 7.40

Record request: pIC50 value, item CNC(=O)C(=O)CC[C@H](NC(=O)c1sc(C(F)(F)F)nc1C)C(=O)Nc1cccn(CC(=O)N[C@@H]2C[C@@H]3CC[C@H]2C3)c1=O
6.40 to 7.40

Recorded pIC50 for CNC(=O)C(=O)CC[C@H](NC(=O)c1oc2ccccc2c1C)C(=O)Nc1cccn(CC(=O)N[C@@H]2C[C@H]3CC[C@]2(C)C3(C)C)c1=O , please?
6.40 to 7.40

Param item = CNC(=O)C(=O)CC[C@H](NC(=O)c1coc(S(N)(=O)=O)c1)C(=O)Nc1cccn(CC(=O)NC2C3CC4CC2CC(NC(C)=O)(C4)C3)c1=O (some centres unmarked) ; retrieve measured pIC50.
5.60 to 6.40

Look up pIC50 for this compound: CNC(=O)C(=O)CC[C@H](NC(=O)c1c(I)cnn1C)C(=O)Nc1cccn(CC(=O)NC2C3CC4CC(C3)CC2C4)c1=O (some centres unmarked)
5.60 to 6.40

Entry CNC(=O)C(=O)CC[C@H](NC(=O)c1ccnn1C)C(=O)Nc1cccn(CC(=O)N[C@@H]2C[C@H]3CC[C@@H]2C3)c1=O has what pIC50?
5.60 to 6.40

Item under review: CNC(=O)C(=O)CC[C@H](NC(=O)c1cc(Br)c(Cl)s1)C(=O)Nc1cccn(CC(=O)NC2C3CC4CC(C3)CC2C4)c1=O (some centres unmarked) . Reported pIC50?
> 7.40

Requested field: pIC50. Item: CNC(=O)C(=O)CC[C@H](NC(=O)c1snnc1C1CC1)C(=O)Nc1cccn(CC(=O)NC2C3CC4CC(C3)CC2C4)c1=O (some centres unmarked)
6.40 to 7.40

What measured pIC50 goes with CNC(=O)C(=O)CC[C@H](NC(=O)c1cc(Br)c(Br)o1)C(=O)Nc1cccn(CC(=O)NC2C3CC4CC(C3)CC2C4)c1=O (some centres unmarked) ?
> 7.40

Can you look up the measured pIC50 of CNC(=O)C(=O)CC[C@H](NC(=O)c1nncs1)C(=O)Nc1cccn(CC(=O)NC23CC(C2)C3)c1=O for me?
6.40 to 7.40
